system: glioblastoma brain cancer cell line LN-229; test: Cytotoxicity assay (CCK8 viability), LN-229; assay type: cell-based; conditions: Homo sapiens, LN-229 cells, 18 hours drug incubation, 1% FBS media
# EC50 values compiled below

[
  {
    "Entry Smiles": "Cc1cccc(-c2c(O)cc(C(C)(C)C3CCCCC3)nc2O)c1",
    "Assayed System": "glioblastoma brain cancer cell line LN-229",
    "Unit Abbrev": "µM",
    "EC50": 71.1
  },
  {
    "Entry Smiles": "CCCCCCC(C)(C)c1cc(O)c(-c2cccc(OC)c2)c(O)n1",
    "Assayed System": "glioblastoma brain cancer cell line LN-229",
    "Unit Abbrev": "µM",
    "EC50": 41.7
  },
  {
    "Entry Smiles": "CC(C)(c1ccccc1)c1cc(O)c(-c2cc(Cl)cc(Cl)c2)c(O)n1",
    "Assayed System": "glioblastoma brain cancer cell line LN-229",
    "Unit Abbrev": "µM",
    "EC50": 29.2
  },
  {
    "Entry Smiles": "CC(C)(c1cc(O)c(-c2cc(Cl)cc(Cl)c2)c(O)n1)C1CCCCC1",
    "Assayed System": "glioblastoma brain cancer cell line LN-229",
    "Unit Abbrev": "µM",
    "EC50": 5.9
  },
  {
    "Entry Smiles": "CCCCCCC(C)(C)c1cc(O)c(-c2cc(Cl)cc(Cl)c2)c(O)n1",
    "Assayed System": "glioblastoma brain cancer cell line LN-229",
    "Unit Abbrev": "µM",
    "EC50": 1.6
  },
  {
    "Entry Smiles": "CCCCCCC(C)(C)c1cc(O)c(-c2ccccc2)c(O)n1",
    "Assayed System": "glioblastoma brain cancer cell line LN-229",
    "Unit Abbrev": "µM",
    "EC50": 52.6
  },
  {
    "Entry Smiles": "CCCCCCC(C)(C)c1cc(O)c(Cc2ccccc2)c(O)n1",
    "Assayed System": "glioblastoma brain cancer cell line LN-229",
    "Unit Abbrev": "µM",
    "EC50": 13.1
  },
  {
    "Entry Smiles": "CCCCCCC(C)(C)c1nc(O)c(-c2cccc(C)c2)c(O)n1",
    "Assayed System": "glioblastoma brain cancer cell line LN-229",
    "Unit Abbrev": "µM",
    "EC50": 24.6
  }
]
